System: HuT78
Experiment: cells
Type: functional
Settings: Homo sapiens, HuT78, 72 h
Description: Growth inhibition of human HUT78 cells after 72 hrs by SRB assay
API: label(entry) gives label 1 if the entry's GI50 is strictly smaller than 200 nM; on equality or larger values it gives label 0.

These recorded examples may help you get a feel for the data.
| ENTRY SMILES | ASSAYED TARGET | LABEL CLASS |
| --- | --- | --- |
| O=C(NO)c1cnc(N2C[C@H]3CN(C(=O)CCCOc4ccccc4)C[C@H]3C2)nc1 | HuT78 | label 0 |
| COc1ccc(CN2C[C@@H]3CN(c4ncc(C(=O)NO)cn4)C[C@@H]3C2)cc1 | HuT78 | label 0 |
| O=C(NO)c1cnc(N2C[C@@H]3CN(S(=O)(=O)c4cc(C(F)(F)F)cc(C(F)(F)F)c4)C[C@@H]3C2)nc1 | HuT78 | label 0 |
| O=C(NO)c1cnc(N2C[C@H]3CN(Cc4ccc5ccccc5c4)C[C@H]3C2)nc1 | HuT78 | label 1 |
| O=C(NO)c1ccc(N2C[C@H]3CN(Cc4ccc5ccccc5c4)C[C@H]3C2)nc1 | HuT78 | label 0 |
| O=C(NO)c1cnc(N2C[C@@H]3CN(S(=O)(=O)c4ccc(OC(F)(F)F)cc4)C[C@@H]3C2)nc1 | HuT78 | label 0 |

-- ask Does O=C(NO)c1cnc(N2C[C@@H]3CN(S(=O)(=O)c4ccc5ccccc5c4)C[C@@H]3C2)nc1 have GI50 strictly under 200 nM?
-- reply label 0

-- ask Does O=C(NO)c1cnc(N2C[C@H]3CN(Cc4ccc(Cl)cc4)C[C@H]3C2)nc1 have GI50 strictly under 200 nM?
-- reply label 1

Attribution: ChEMBL document CHEMBL1268928
